targetOrTestSystem: CquiOR2 + CquiOR7 (Culex quinquefasciatus, UniProt D5LMR6)
Sequence (Q309I4 entry or part of it): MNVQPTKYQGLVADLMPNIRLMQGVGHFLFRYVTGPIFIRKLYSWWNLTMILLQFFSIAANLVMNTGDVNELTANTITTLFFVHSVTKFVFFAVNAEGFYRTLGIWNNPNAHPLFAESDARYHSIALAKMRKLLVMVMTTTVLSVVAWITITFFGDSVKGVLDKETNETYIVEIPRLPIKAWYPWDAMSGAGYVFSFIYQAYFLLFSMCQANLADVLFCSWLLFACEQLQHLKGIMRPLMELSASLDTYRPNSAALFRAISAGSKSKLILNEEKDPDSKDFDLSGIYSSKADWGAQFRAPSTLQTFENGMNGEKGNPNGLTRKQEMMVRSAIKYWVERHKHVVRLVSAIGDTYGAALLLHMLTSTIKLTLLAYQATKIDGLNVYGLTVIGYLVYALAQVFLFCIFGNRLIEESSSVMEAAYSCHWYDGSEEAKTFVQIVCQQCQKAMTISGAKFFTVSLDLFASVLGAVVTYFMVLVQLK
Sequence (D5LMR6 entry or part of it): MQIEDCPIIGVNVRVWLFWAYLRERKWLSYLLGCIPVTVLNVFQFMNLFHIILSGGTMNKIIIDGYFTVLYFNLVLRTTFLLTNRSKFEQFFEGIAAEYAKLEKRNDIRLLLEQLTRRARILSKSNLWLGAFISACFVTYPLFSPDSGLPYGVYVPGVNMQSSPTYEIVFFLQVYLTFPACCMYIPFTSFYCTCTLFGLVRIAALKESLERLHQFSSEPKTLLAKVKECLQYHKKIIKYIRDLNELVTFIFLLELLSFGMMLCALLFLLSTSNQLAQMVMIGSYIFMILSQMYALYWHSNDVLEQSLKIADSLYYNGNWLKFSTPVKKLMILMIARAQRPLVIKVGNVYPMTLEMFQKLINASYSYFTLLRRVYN
assayRemarks: Two-electrode voltage clamp of Xenopus oocytes expressing CquiOR2 + CquiOR7
Format: cell-based
particulars: maximum value from fit, as percentage of the maximum value for indole; mean ± SEM; read-out: Relative Efficacy
readout: Emax (%)

Worked examples follow.
Cc1ccc2cc[nH]c2c1 [6-Methylindole] | 69
Cc1cccc2[nH]ccc12 [4-Methylindole] | 60
Cc1cccc2cc[nH]c12 [7-Methylindole] | 67
Cc1cc2ccccc2[nH]1 [2-Methylindole] | 106

(A) Cc1ccc2[nH]ccc2c1 [5-Methylindole]
(B) Cc1c[nH]c2ccccc12 [3-Methylindole]
Qu. Decide: A or B , by lowest recorded Emax. Give the chosen item's label as your response.
Ans. A

----------
targetOrTestSystem: CquiOR2 + CquiOR7 (Culex quinquefasciatus)
assayRemarks: Two-electrode voltage clamp of Xenopus oocytes expressing CquiOR2 + CquiOR7
Type: cell-based
particulars: 20 s applications, Hill fit; mean ± SEM, 5–16 separate oocytes; read-out: EC50
readout: EC50 (µM)

Cc1ccc2[nH]ccc2c1 [5-Methylindole] | 8.6

(I) Cc1cccc2[nH]ccc12 [4-Methylindole]
(II) Cc1cccc2cc[nH]c12 [7-Methylindole]
Qu. // compare: I vs II , metric EC50, want the smaller Identify your selection by its label.
Ans. I
